Reference source: patent US7402696B2

target: ACC (acetyl CoA carboxylase) purified from liver of male SD rat (Rattus norvegicus, UniProt P11497); construct: applied to a monomeric avidin sepharose column, and washed with buffer B. The ACC was eluted with buffer B containing 2 mM d-biotin; from tissue; host or cells: liver of male SD rat; test: Measurement of ACC inhibition activity ([14C]-NaHCO3 incorporation); type: biochemical; conditions: ACC inhibition activity rate at 1 μM; Table 4-IV, Mode 4 benzenediamine compounds (numbers = x-IV); read-out: ACC Inhibition (%)
Decision: inhibition at 1 µM compared against 90%; not below it gives T, below it gives F.

Here's what some known entries look like.
| compound | assigned.class |
| --- | --- |
| Cc1ccccc1S(=O)(=O)NC(=O)c1cccc(-c2nc(-c3ccc(N(C)CCC(C)C)c(N4COc5ccccc5C4)c3)no2)c1 | T |
| CC(C)CCN(C)c1ccc(-c2noc(-c3cccc(C(=O)NS(=O)(=O)c4ccccc4)c3)n2)cc1NCc1cccc(F)c1 | T |

Does the reported inhibition at 1 µM for `CC(C)CCN(C)c1ccc(-c2noc(-c3cccc(C(=O)NS(=O)(=O)c4ccccc4)c3)n2)cc1NC(C)C` fall at or above the 90% mark?
F

Ok, now `CC(C)CCN(C)c1ccc(C(=O)N[C@H]2CCCC[C@H]2C(=O)NS(=O)(=O)c2ccccc2)cc1NCc1ccccc1`
T

Repeat for the following compound: `CCCCCC(=O)NS(=O)(=O)c1ccccc1NC(=O)c1ccc(Nc2ccccc2)c(NC(=O)c2ccc(C(F)(F)F)cc2)c1`
T

Cc1ccccc1S(=O)(=O)NC(=O)CC(NC(=O)c1ccc(N(C)CCC(C)C)c(N(C)CC2CCCCC2)c1)C1CCCCC1 (stereo not shown) , same question.
T

Item: CC(C)CCN(C)c1ccc(C(=O)NC(CC(=O)NS(=O)(=O)c2cn(C)cn2)C2CCCCC2)cc1NCCc1ccccc1 (stereo not shown)
F

Continue with `CN(C)CCNc1ccc(C(=O)Nc2cccc(C(=O)NS(=O)(=O)c3ccccc3)c2)cc1[N+](=O)[O-]`
F

Try this compound next: `O=C(NS(=O)(=O)c1ccccc1)c1cccc(-c2noc(-c3ccc(NC4CC4)c([N+](=O)[O-])c3)n2)c1`
F

Would you mind doing Cc1ccccc1S(=O)(=O)NC(=O)CC(NC(=O)c1ccc(N(C)CCC(C)C)c(N(C)Cc2ccccc2)c1)C1CCCCC1 (stereo not shown) as well?
T

CC(C)CCN(C)c1ccc(C(=O)NC(CC(=O)NS(=O)(=O)c2ccccc2)C2CCCCC2)cc1NCc1ccco1 (stereo not shown) ?
F

---

Recorded inhibition at 1 µM for the following compounds
molecular target: ACC (acetyl CoA carboxylase) purified from liver of male SD rat (Rattus norvegicus); construct: applied to a monomeric avidin sepharose column, and washed with buffer B. The ACC was eluted with buffer B containing 2 mM d-biotin; from tissue; host or cells: liver of male SD rat; assay: Measurement of ACC inhibition activity ([14C]-NaHCO3 incorporation); format: biochemical; conditions: ACC inhibition activity rate at 1 μM; Table 4-IV, Mode 4 benzenediamine compounds (numbers = x-IV); read-out: ACC Inhibition (%)
Reply with a number, then the unit it belongs to.

# example entries with known answers
| compound | endpoint | readout.value |
| --- | --- | --- |
| CC(C)CCN(C)c1ccc(C(=O)NC(CC(=O)NS(=O)(=O)c2cn(C)cn2)C2CCCCC2)cc1NCC1CCCCC1 (stereo not shown) | inhibition at 1 µM | 71% |
| CCCCCC(=O)NS(=O)(=O)c1ccccc1NC(=O)c1ccc(Nc2ccc(C(F)(F)F)cc2)c(NC(=O)C2CCCCC2)c1 | inhibition at 1 µM | 72% |
| CC(C)CCN(C)c1ccc(-c2noc(-c3cccc(C(=O)NS(=O)(=O)c4ccccc4)c3)n2)cc1NC1C=CCCC1 (stereo not shown) | inhibition at 1 µM | 100% |
| CC(C)CCN(C)c1ccc(-c2noc(-c3cccc(C(=O)NS(=O)(=O)c4ccccc4)c3)n2)cc1NCc1nccn1C | inhibition at 1 µM | 61% |
| CCCCCC(=O)NS(=O)(=O)c1ccccc1NC(=O)c1ccc(Nc2ccccc2)c(NC(=O)c2ccccc2)c1 | inhibition at 1 µM | 74% |
| CC(C)CCN(C)c1ccc(C(=O)NC(CC(=O)NS(=O)(=O)c2cn(C)cn2)C2CCCCC2)cc1NCc1ccccc1 (stereo not shown) | inhibition at 1 µM | 68% |
| CCC(CC)C(=O)Nc1cc(-c2noc(-c3cccc(C(=O)NS(=O)(=O)c4ccccc4)c3)n2)ccc1N(C)CCC(C)C | inhibition at 1 µM | 76% |
| CCCCCC(=O)NS(=O)(=O)c1ccccc1NC(=O)c1ccc(Nc2ccc(C(F)(F)F)cc2)c(NC(=O)c2cccs2)c1 | inhibition at 1 µM | 67% |
| CC(C)CCN(C)c1ccc(-c2noc(-c3cccc(C(=O)NS(=O)(=O)c4ccccc4)c3)n2)cc1NC(=O)OCc1ccccc1 | inhibition at 1 µM | 100% |
| CC(C)CCNc1ccc(-c2noc(-c3cccc(C(=O)NS(=O)(=O)c4ccccc4)c3)n2)cc1[N+](=O)[O-] | inhibition at 1 µM | 87% |

Quick one: inhibition at 1 µM for `CC(C)CCN(C)c1ccc(-c2noc(-c3cccc(C(=O)NS(=O)(=O)c4ccccc4)c3)n2)cc1NCc1cc(O)cc(O)c1` ?
77%

Do the same for Cc1ccccc1S(=O)(=O)NC(=O)CC(NC(=O)c1ccc(N(C)CCC(C)C)c(NCc2ccccc2O)c1)C1CCCCC1 (stereo not shown) please
67%

Follow-up entry: `CC(C)CCN(C)c1ccc(-c2noc(-c3cccc(C(=O)NS(=O)(=O)c4ccccc4)c3)n2)cc1NCc1cccc(O)c1`
95%

---

target: ACC (acetyl CoA carboxylase) purified from liver of male SD rat (Rattus norvegicus); construct: applied to a monomeric avidin sepharose column, and washed with buffer B. The ACC was eluted with buffer B containing 2 mM d-biotin; from tissue; host or cells: liver of male SD rat; test: Measurement of ACC inhibition activity ([14C]-NaHCO3 incorporation); assay type: biochemical; conditions: ACC inhibition activity rate at 1 μM; Table 4-IV, Mode 4 benzenediamine compounds (numbers = x-IV); read-out: ACC Inhibition (%)
Consider the following molecules and their measured inhibition at 1 µM readings.
Value expressed in %; do not type the unit.

Example entries begin here.
| molecule | inhibition at 1 µM [%] |
| --- | --- |
| Cc1ccccc1S(=O)(=O)NC(=O)CC(NC(=O)c1ccc(N(C)CCC(C)C)c(NCC2CCCCC2)c1)C1CCCCC1 (stereo not drawn) | 92 |
| Cc1ccccc1S(=O)(=O)NC(=O)c1cccc(-c2nc(-c3ccc(N(C)CCC(C)C)c(NCc4ccccc4[N+](=O)[O-])c3)no2)c1 | 100 |
| CC(C)CCN(C)c1ccc(-c2noc(-c3cccc(C(=O)NS(=O)(=O)c4ccccc4)c3)n2)cc1NC(=O)c1ccccc1 | 87 |
| CC(C)CCN(C)c1ccc(-c2noc(-c3cccc(C(=O)NS(=O)(=O)c4ccccc4)c3)n2)cc1NCC1=CCCCC1 | 100 |
| CC(C)CCN(C)c1ccc(-c2noc(-c3cccc(C(=O)NS(=O)(=O)c4ccccc4)c3)n2)cc1NCc1ccccc1O | 98 |

Let us examine a further case.
For the molecule `CCCCCC(=O)NS(=O)(=O)c1ccccc1NC(=O)c1ccc(Nc2ccc(C(F)(F)F)cc2)c(NC(=O)c2cc(C(F)(F)F)cc(C(F)(F)F)c2)c1` , what inhibition at 1 µM is on record?
86

---

target: ACC (acetyl CoA carboxylase) purified from liver of male SD rat (Rattus norvegicus, UniProt P11497); construct: applied to a monomeric avidin sepharose column, and washed with buffer B. The ACC was eluted with buffer B containing 2 mM d-biotin; from tissue; host or cells: liver of male SD rat; assay: Measurement of ACC inhibition activity ([14C]-NaHCO3 incorporation); assay type: biochemical; conditions: ACC inhibition activity rate at 1 μM; Table 4-IV, Mode 4 benzenediamine compounds (numbers = x-IV); read-out: ACC Inhibition (%)
Readings of inhibition at 1 µM for the listed compounds
Express your answer in %, writing the number without its unit.

Suppose we examine the compound `Cc1ccccc1S(=O)(=O)NC(=O)[C@@H]1CCCC[C@@H]1NC(=O)c1ccc(N(C)CCC(C)C)c(NCc2ccccc2)c1` ; what inhibition at 1 µM value has been reported?
72

What would you report for `CC(C)CCN(C)c1ccc(-c2noc(-c3cccc(C(=O)NS(=O)(=O)c4ccccc4)c3)n2)cc1NC(=O)c1cccs1` ?
83

# repeat for CC(C)CCN(C)c1ccc(C(=O)NC(CC(=O)NS(=O)(=O)c2ccccc2)c2ccccc2)cc1NCc1ccccc1 (stereo not drawn)
75

Would you kindly repeat that for `CSc1ccccc1CNc1cc(-c2noc(-c3cccc(C(=O)NS(=O)(=O)c4ccccc4)c3)n2)ccc1N(C)CCC(C)C` ?
100

And then CN(c1ccc(C(=O)NC(CC(=O)NS(=O)(=O)c2ccccc2)C2CCCCC2)cc1NCCc1ccccc1)C1CC1 (stereo not drawn) , what is it?
69

Queued: Cc1ccccc1S(=O)(=O)NC(=O)CC(NC(=O)c1ccc(N(C)CCC(C)C)c(NCc2ccccc2[N+](=O)[O-])c1)C1CCCCC1 (stereo not drawn)
64
